- Test system: 7G8
- run_description: qHTS profiling for inhibitors of Plasmodium falciparum proliferation (AID 504749); note: nearly all actives have a fitted effect of over 60% in size
- applied_conditions: P. falciparum in erythrocytes, SYBR Green DNA, 72 h; series mostly up to 28.7 µM
Records with an inconclusive call do not appear. Activity calls are given as the source filed them. Calls come from the whole dose curve; as a rule, active = well fitted inhibition curve with a large enough effect; inconclusive = small, poorly fitted or top-dose-only effect; inactive = flat fitted curve, though single readings scatter.
Outcome codes: true for active, false for inactive

compound: CC(=O)NC1[C@H]([C@H](O)[C@H](O)CO)OC(C(=O)O)=C[C@H]1N=C(N)N (stereo partly specified)
assay_target: 7G8
class: false
//
compound: CO/N=C(/C(=O)N[C@@H]1C(=O)N2C(C(=O)O)=C(CSc3nc(C)c(CC(=O)O)s3)CS[C@H]12)c1csc(N)n1
assay_target: 7G8
class: false
//
compound: CNC(=O)C(N)CSC(C)C1=C(C)c2cc3[n-]c(cc4nc(cc5[n-]c(cc1n2)c(C)c5CCC(=O)O)C(CCC(=O)O)=C4C)c(C)c3C(C)SCC(N)C(=O)NC.[Fe+2] (stereo unspecified)
assay_target: 7G8
class: false
//
compound: CO/N=C(/C(=O)N[C@@H]1C(=O)N2C(C(=O)O)=C(CSc3cnns3)CS[C@H]12)c1csc(N)n1
assay_target: 7G8
class: false
//
compound: OCC(O)C(O)C(O)C(O)CO (stereo unspecified)
assay_target: 7G8
class: false
//
compound: CC1=C(/C=C/C(C)=C\C=C\C(C)=C\C=C\C=C(C)\C=C\C=C(C)\C=C\C2=C(C)C[C@@H](O)CC2(C)C)C(C)(C)C[C@H](O)C1
assay_target: 7G8
class: true
//
compound: CC(C)C(=O)OCC(=O)[C@@]12OC(C3CCCCC3)O[C@@H]1CC1C3CCC4=CC(=O)C=C[C@]4(C)C3[C@@H](O)C[C@@]12C (stereo partly specified)
assay_target: 7G8
class: true
//
compound: O=C1Oc2ccccc2C(=O)C1C(CC(O)c1ccc(-c2ccc(Br)cc2)cc1)c1ccccc1 (stereo unspecified)
assay_target: 7G8
class: true
//
compound: NC[C@@H]1O[C@H](OC2[C@@H](CO)O[C@@H](OC3[C@H](O)[C@H](N)C[C@H](N)[C@H]3OC3O[C@H](CO)[C@@H](O)[C@H](O)[C@@H]3N)[C@H]2O)C(N)[C@H](O)[C@@H]1O (stereo partly specified)
assay_target: 7G8
class: false
//
compound: C[C@]12CC[C@@H]3c4ccc(O)cc4CC[C@H]3[C@@H]1CCC2OC(=O)CCC1CCCC1 (stereo partly specified)
assay_target: 7G8
class: true
//
compound: CCC(=O)O[C@]1(C(=O)CCl)[C@@H](C)CC2C3C[C@H](F)C4=CC(=O)C=CC4(C)[C@@]3(F)C(O)CC21C (stereo partly specified)
assay_target: 7G8
class: true
//
compound: C[C@H]1OC(OC2C(O)[C@@H](O)C(OC3C(O)[C@@H](O)C(O)O[C@@H]3CO)O[C@@H]2CO)[C@H](O)C(O)C1N[C@H]1C=C(CO)[C@@H](O)[C@H](O)C1O (stereo partly specified)
assay_target: 7G8
class: false
//
compound: NC(C(=O)O)c1ccc(O)cc1 (stereo unspecified)
assay_target: 7G8
class: false
//
compound: C=C1CC[C@H](O)C/C1=C/C=C1\CCC[C@]2(C)[C@@H]([C@H](C)CCCC(C)(C)O)CC[C@@H]12
assay_target: 7G8
class: true
//
compound: CCCCN1CC(O)C(O)C(O)C1CO (stereo unspecified)
assay_target: 7G8
class: false
//
compound: Cc1cncc(C(=O)O)[n+]1[O-]
assay_target: 7G8
class: false
//
compound: O=C(O)CC(O)CC(O)/C=C/c1c(C2CC2)nc2ccccc2c1-c1ccc(F)cc1 (stereo unspecified)
assay_target: 7G8
class: false
//
compound: COc1cc(/C=C2\CCC/C(=C\c3ccc(O)c(OC)c3)C2=O)ccc1O
assay_target: 7G8
class: true
//
compound: O=C(O)C[CH2][Ge](=[O])[O][Ge](=[O])[CH2]CC(=O)O
assay_target: 7G8
class: false
//
compound: CC(C)C[C@@H](NC(=O)[C@@H](Cc1ccccc1)NC(=O)c1cnccn1)B(O)O
assay_target: 7G8
class: true
//
compound: OC[C@@H]1O[C@](CO)(O[C@H]2O[C@H](CO)[C@@H](O)[C@H](O)[C@H]2O)[C@H](O)[C@H]1O
assay_target: 7G8
class: false
//
compound: C[C@]12CC[C@@H]3c4ccc(O)cc4C[C@@H](CCCCCCCCCS(=O)CCCC(F)(F)C(F)(F)F)C3[C@@H]1CC[C@@H]2O (stereo partly specified)
assay_target: 7G8
class: true
//
compound: CC[C@@H]1/C=C(\C)C[C@H](C)C[C@H](OC)[C@H]2O[C@@](O)(C(=O)C(=O)N3CCCC[C@H]3C(=O)O[C@H](/C(C)=C/[C@@H]3CC[C@H](Cl)[C@H](OC)C3)[C@H](C)[C@@H](O)CC1=O)[C@H](C)C[C@@H]2OC
assay_target: 7G8
class: false
//
compound: O=C(O)C(O)c1ccccc1 (stereo unspecified)
assay_target: 7G8
class: false
//
compound: CCCC(=O)Nc1c(I)cc(I)c(C[C@H](CC)C(=O)O)c1I
assay_target: 7G8
class: false
//
compound: COc1ccc2cc1Oc1cc3c(cc1OC)CC[N+](C)(C)C3Cc1ccc(cc1)Oc1c(OC)c(OC)cc3c1C(C2)[N+](C)(C)CC3 (stereo unspecified)
assay_target: 7G8
class: false
//
compound: C/C1=C2/[N-]C(C(CC(N)=O)[C@@]2(C)CCC(=O)NCC(C)OP(=O)([O-])O[C@H]2[C@@H](O)[C@@H](n3cnc4cc(C)c(C)cc43)O[C@@H]2CO)[C@]2(C)N=C(/C(C)=C3N=C(/C=C4N=C1C(CCC(N)=O)C\4(C)C)[C@@H](CCC(N)=O)[C@]\3(C)CC(N)=O)[C@@H](CCC(N)=O)[C@]2(C)CC(N)=O.CC(=O)O.[Co] (stereo partly specified)
assay_target: 7G8
class: false
//
compound: COC(=O)C1[C@@H](OC)C(OC(=O)COc2ccc(OC)cc2)C[C@@H]2CN3CCc4c([nH]c5cc(OC)ccc45)[C@H]3C[C@H]12 (stereo partly specified)
assay_target: 7G8
class: true
//
compound: CC1(C(=O)O)CCC2(C)CCC3(C)C(=CC(=O)C4C5(C)CCC(O)C(C)(C)C5CCC43C)C2C1 (stereo unspecified)
assay_target: 7G8
class: false
//
compound: CCN(CC)CC(=O)Nc1c(C)cc(C)cc1C
assay_target: 7G8
class: false
//
compound: CC1OC(OCC2OC(Oc3c(-c4ccc(OCCO)c(OCCO)c4)oc4cc(OCCO)cc(O)c4c3=O)C(O)C(O)C2O)[C@@H](O)C(O)C1O (stereo partly specified)
assay_target: 7G8
class: false
